Attribute: protein stability index
B1: WDR41 (parent)
chain: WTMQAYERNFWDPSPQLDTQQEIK

Variants of: B1
Assay: protein stability index of a GFP-peptide fusion (GPS, HEK-293T) (PSI 1-6); higher = more stable;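 further: lentivirally expressed fusions sorted by FACS into six bins by GFP to DsRed ratio, PSI derived from sequencing read proportions per bin multiplied by bin number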
Settings: c terminus: a fixed tail appended

Here are 4 variants together with their reported answers.
L17S = 2.68
F10A = 3.23
Y6M = 3.17
T2P = 3.82

Determine from records and report protein stability index for T19Y 1.62

Determine from records and report protein stability index for D18R 2.02

Determine from records and report protein stability index for Y6L 2.98

Determine from records and report protein stability index for Q20A 1.64

Determine from records and report protein stability index for D12L 3.49

Determine from records and report protein stability index for E7R 2.86

Determine from records and report protein stability index for D18E 2.7

Determine from records and report protein stability index for I23S 3.27
